Target: human α2δ-1 subunit of Cav2.2 calcium channel (Homo sapiens (Human))
Sequence (P54289 25-1103): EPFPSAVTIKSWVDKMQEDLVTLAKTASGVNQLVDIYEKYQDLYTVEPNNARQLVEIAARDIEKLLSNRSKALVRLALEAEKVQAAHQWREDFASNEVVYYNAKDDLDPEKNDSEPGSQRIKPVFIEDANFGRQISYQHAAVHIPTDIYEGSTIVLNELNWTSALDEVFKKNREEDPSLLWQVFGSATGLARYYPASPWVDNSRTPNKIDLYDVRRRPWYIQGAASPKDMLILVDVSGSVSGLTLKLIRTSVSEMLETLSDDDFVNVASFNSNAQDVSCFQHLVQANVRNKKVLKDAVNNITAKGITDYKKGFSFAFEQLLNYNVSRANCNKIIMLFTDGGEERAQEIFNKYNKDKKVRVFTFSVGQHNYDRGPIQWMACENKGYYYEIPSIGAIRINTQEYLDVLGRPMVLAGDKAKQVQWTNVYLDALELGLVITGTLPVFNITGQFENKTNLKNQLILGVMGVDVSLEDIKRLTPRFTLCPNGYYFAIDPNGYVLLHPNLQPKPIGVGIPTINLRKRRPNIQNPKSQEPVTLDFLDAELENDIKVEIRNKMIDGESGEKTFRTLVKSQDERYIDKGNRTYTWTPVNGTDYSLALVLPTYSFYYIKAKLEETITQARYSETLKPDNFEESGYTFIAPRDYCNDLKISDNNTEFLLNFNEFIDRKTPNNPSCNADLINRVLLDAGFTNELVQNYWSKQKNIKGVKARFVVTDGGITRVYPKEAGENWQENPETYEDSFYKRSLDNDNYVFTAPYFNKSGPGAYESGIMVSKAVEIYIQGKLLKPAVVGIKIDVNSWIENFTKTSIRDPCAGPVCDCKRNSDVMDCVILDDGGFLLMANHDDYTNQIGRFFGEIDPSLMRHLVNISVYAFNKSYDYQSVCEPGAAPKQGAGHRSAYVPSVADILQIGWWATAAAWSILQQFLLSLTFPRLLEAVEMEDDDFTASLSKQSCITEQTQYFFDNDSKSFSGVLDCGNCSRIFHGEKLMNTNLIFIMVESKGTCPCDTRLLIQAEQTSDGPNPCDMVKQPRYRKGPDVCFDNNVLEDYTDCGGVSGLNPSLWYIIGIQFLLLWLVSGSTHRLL
Test: Binding assay to human α2δ-1 subunit of Cav2.2 calcium channel ([3H]-Gabapentin)
Details: binding to α2δ-1, [3H]-Gabapentin; read-out: Ki (nM) α2δ-1
Description: Binding Assay to Human α2δ-1 Subunit of Cav2.2 Calcium Channel. NSB (non specific binding) was measured by adding 10 μM pregabalin. […] Filter plates were dried at 60° C. for 1 hour and 30 μl of scintillation cocktail were added to each well before radioactivity reading.
Each entry below carries its reported Ki.

• CCNc1ncc2c(n1)N(C)CCN(c1cccc(OC3CCN(C(=O)OC(C)(C)C)C3)c1)C2=O (centres unmarked) = > 3000 nM
• CCNc1ncc2c(n1)N(C)CCN(c1cccc(-n3cc(CN(CC4CC4)CC4CC4)nn3)c1)C2=O = 500 to 3000 nM
• CNCC(OCc1cccc(CN2CCN(C)c3nc(SC)ncc3C2=O)c1)c1ccccc1 (centres unmarked) = > 3000 nM
• CCNc1ncc2c(n1)N(C)CCN(c1cccc(OC(CN(C)C(=O)OC(C)(C)C)C(C)C)c1)C2=O (centres unmarked) = > 3000 nM
• CSc1ncc2c(n1)N(C)CCN(c1cccc(O[Si](C)(C)C(C)(C)C)c1)C2=O = > 3000 nM

If you can, please state the reported Ki value of CNCC(OCc1ccc(N2CCN(C)c3nc(C)ncc3C2=O)cc1)c1ccccc1 (centres unmarked) .
> 3000 nM

Ok, now CCNc1ncc2c(n1)N(C)CCN(c1cccc(CCCNC)c1)C2=O
100 to 500 nM

Also check CCNc1ncc2c(n1)N(C)CCN(c1cccc(O[Si](C)(C)C(C)(C)C)c1)C2=O
> 3000 nM

---

Here the recorded Ki is given for each entry.
target: UniProt:P23975; assay: Binding assay to human norepinephrine transporter (NET) ([3H]-Nisoxetin); conditions: Table 2, dual compounds; [3H]-Nisoxetin binding
Sequence (P23975 whole entry): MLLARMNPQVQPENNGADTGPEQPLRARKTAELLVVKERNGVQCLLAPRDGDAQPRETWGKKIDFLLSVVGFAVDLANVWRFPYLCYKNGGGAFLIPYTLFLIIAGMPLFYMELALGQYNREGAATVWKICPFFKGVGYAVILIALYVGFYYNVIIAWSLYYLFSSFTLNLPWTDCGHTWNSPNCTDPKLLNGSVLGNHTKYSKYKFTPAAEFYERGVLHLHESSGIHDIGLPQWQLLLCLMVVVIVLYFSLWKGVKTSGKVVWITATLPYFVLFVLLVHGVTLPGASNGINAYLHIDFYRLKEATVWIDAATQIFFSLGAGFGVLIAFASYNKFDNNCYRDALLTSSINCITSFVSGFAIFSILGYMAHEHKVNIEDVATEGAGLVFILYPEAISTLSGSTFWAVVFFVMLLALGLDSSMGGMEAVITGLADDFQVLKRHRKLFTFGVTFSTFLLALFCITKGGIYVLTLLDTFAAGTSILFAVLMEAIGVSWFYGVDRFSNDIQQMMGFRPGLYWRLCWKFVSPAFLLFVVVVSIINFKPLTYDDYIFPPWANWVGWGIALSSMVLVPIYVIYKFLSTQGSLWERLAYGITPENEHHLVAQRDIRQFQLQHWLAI

* CNCCC(Oc1cccc(CN2CCN(C)c3nc(SC)ncc3C2=O)c1)c1ccccc1 (stereo not shown) [Example 366] | 500 to 1000 nM

Give its Ki value. Item: CNCCC(OCc1ccc(CN2CCN(C)c3nc(SC)ncc3C2=O)cc1)c1ccccc1 (stereo not shown) [Example 368]
100 to 500 nM

Proceed to CCc1ncc2c(n1)N(C)CCN(c1cccc(COC(CCNC)c3ccccc3)c1)C2=O (stereo not shown) [Example 354]
100 to 500 nM

Please do the same for CNCCC(Oc1ccc(N2CCN(C)c3nc(SC)ncc3C2=O)cc1)c1ccccc1 (stereo not shown) [Example 316] as well.
500 to 1000 nM

---

molecular target: human α2δ-1 subunit of Cav2.2 calcium channel (Homo sapiens (Human)); assay: Binding assay to human α2δ-1 subunit of Cav2.2 calcium channel ([3H]-Gabapentin); conditions: binding to α2δ-1, [3H]-Gabapentin; read-out: Ki (nM) α2δ-1
QUANTITY_MEASURED: Ki

• CSc1ncc2c(n1)N(C)CCN(c1cccc(O[C@H](CCN(C)C(=O)OC(C)(C)C)c3ccccc3)c1)C2=O = > 3000 nM

Query Ki on human α2δ-1 subunit of Cav2.2 calcium channel (Homo sapiens (Human)) for CNCC[C@H](Oc1ccc(CN2CCN(C)c3nc(OC)ncc3C2=O)c(C)c1)c1cccs1
< 100 nM

Item: CCNc1ncc2c(n1)N(C)CCN(c1ccccc1OC(CCN(C)C(=O)OC(C)(C)C)c1ccccc1)C2=O (stereo not drawn)
> 3000 nM

Queued: CSc1ncc2c(n1)N(C)CCN(c1cccc(OC(CCN(C)C(=O)OC(C)(C)C)c3cccnc3)c1)C2=O (stereo not drawn)
> 3000 nM

Now the molecule CNCC(Oc1ccccc1CN1CCN(C)c2nc(SC)ncc2C1=O)c1ccccc1 (stereo not drawn)
> 3000 nM
